// provenance: ChEMBL document CHEMBL2413015

experimentalSystem: Acetylcholinesterase (Electrophorus electricus, UniProt O42275)
Sequence (O42275 whole entry): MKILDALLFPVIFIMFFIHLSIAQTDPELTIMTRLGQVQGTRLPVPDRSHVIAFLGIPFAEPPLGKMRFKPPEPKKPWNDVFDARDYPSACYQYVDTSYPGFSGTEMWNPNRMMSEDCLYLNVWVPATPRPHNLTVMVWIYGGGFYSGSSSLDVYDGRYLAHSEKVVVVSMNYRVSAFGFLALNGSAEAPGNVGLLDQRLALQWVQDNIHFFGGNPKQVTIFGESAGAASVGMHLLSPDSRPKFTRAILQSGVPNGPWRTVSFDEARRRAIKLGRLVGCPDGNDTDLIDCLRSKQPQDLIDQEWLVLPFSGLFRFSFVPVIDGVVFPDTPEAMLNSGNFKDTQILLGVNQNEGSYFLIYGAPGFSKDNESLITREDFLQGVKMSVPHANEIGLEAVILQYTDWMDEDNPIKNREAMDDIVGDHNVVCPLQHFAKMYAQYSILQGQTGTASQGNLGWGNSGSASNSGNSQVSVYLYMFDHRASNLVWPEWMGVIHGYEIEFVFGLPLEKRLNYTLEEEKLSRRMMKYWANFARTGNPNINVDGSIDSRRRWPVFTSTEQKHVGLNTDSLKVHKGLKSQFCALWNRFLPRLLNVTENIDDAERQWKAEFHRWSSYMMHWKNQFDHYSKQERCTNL
experimentDescription: Non competitive inhibition of electric eel AChE using acetylthiocholine iodide as substrate by Lineweaver-Burk plot analysis
property: Ki (µM)

{"columns": ["smilesStructure", "property", "measurementUnit", "reading"],
 "data": [
  ["C/C(=N\\NC(=O)Nc1ccncc1)c1ccc(O)cc1", "Ki", "µM", 0.246],
  ["O=C(NN=C(c1ccccc1)c1ccccc1)Nc1ccncc1", "Ki", "µM", 0.082]
]}

---

Catalogue of compounds with associated pIC50
experimentalSystem: Acetylcholinesterase (Electrophorus electricus)
experimentDescription: Inhibition of electric eel AChE using acetylthiocholine iodide as substrate preincubated for 20 mins prior to substrate addition by Ellman's method
statedConditions: read-out: IC50
pIC50: −log10 of the molar value.

{"columns": ["smilesStructure", "experimentalSystem", "pIC50"],
 "data": [
  ["COc1ccc(/C=N/NC(=O)Nc2ccncc2)cc1OC", "Acetylcholinesterase (Electrophorus electricus)", 4.90],
  ["O=C(N/N=C/c1ccccc1O)Nc1ccncc1", "Acetylcholinesterase (Electrophorus electricus)", 4.49],
  ["NNC(=O)Nc1ccncc1", "Acetylcholinesterase (Electrophorus electricus)", 3.68],
  ["O=C(N/N=C/c1ccc(O)cc1O)Nc1ccncc1", "Acetylcholinesterase (Electrophorus electricus)", 5.37],
  ["O=C(N/N=C/c1ccccc1)Nc1ccncc1", "Acetylcholinesterase (Electrophorus electricus)", 4.08],
  ["O=C(NN=C(c1ccccc1)c1ccccc1)Nc1ccncc1", "Acetylcholinesterase (Electrophorus electricus)", 7.28],
  ["COc1cc(/C=N/NC(=O)Nc2ccncc2)ccc1O", "Acetylcholinesterase (Electrophorus electricus)", 4.73],
  ["NC(=O)Nc1ccncc1", "Acetylcholinesterase (Electrophorus electricus)", 3.56],
  ["C/C(=N\\NC(=O)Nc1ccncc1)c1ccc(O)cc1", "Acetylcholinesterase (Electrophorus electricus)", 6.84],
  ["COc1ccc(/C=N/NC(=O)Nc2ccncc2)cc1", "Acetylcholinesterase (Electrophorus electricus)", 4.32]
]}
